- PROTOCOL: background-corrected fluorescence of 3'-dye-labeled ssDNA relative to brightest sequence (3'-GCGCG) (fraction); higher = brighter dye fluorescence (less quenching)
- SETTINGS: dye: Cy5 (3' terminal)
Rule: background-corrected fluorescence under 0.4 gives false (0), otherwise true (1).

[[record]]
sequence_input = "TTTTTGCATGATGATGCTGATTTTTTTTTTTTTTTTCCAC [CACCT]"
discrete_label = "false (0)"

[[record]]
sequence_input = "TTTTTTCATGATCATCATGCTTTTTTTTTTTTTTTGCGGA [AGGCG]"
discrete_label = "true (1)"

[[record]]
sequence_input = "TTTTTTGCGCATGCTGATGCTTTTTTTTTTTTTTTATACA [ACATA]"
discrete_label = "false (0)"

[[record]]
sequence_input = "TTTTTGCATCATGCTCATCATTTTTTTTTTTTTTTTGAGG [GGAGT]"
discrete_label = "true (1)"

[[record]]
sequence_input = "TTTTTTGCGCATGAGCATGATTTTTTTTTTTTTTTATCTC [CTCTA]"
discrete_label = "false (0)"

[[record]]
sequence_input = "TTTTTTGCTGCGCAGCATGATTTTTTTTTTTTTTTAATTC [CTTAA]"
discrete_label = "false (0)"

[[record]]
sequence_input = "TTTTTTGCTGCTGATGATGATTTTTTTTTTTTTTTAACCC [CCCAA]"
discrete_label = "false (0)"

[[record]]
sequence_input = "TTTTTGCATGATCATCAGCATTTTTTTTTTTTTTTTCGGT [TGGCT]"
discrete_label = "true (1)"

[[record]]
sequence_input = "TTTTTGCATGATGAGCATCATTTTTTTTTTTTTTTTCCTG [GTCCT]"
discrete_label = "false (0)"

[[record]]
sequence_input = "TTTTTTGATCATCAGCATGCTTTTTTTTTTTTTTTCGGTA [ATGGC]"
discrete_label = "true (1)"


###

- PROTOCOL: background-corrected fluorescence of 3'-dye-labeled ssDNA relative to brightest sequence (3'-GCGCG) (fraction); higher = brighter dye fluorescence (less quenching)
- SETTINGS: dye: Cy5 (3' terminal)
TEST READOUT: background-corrected fluorescence

[[record]]
sequence_input = "TTTTTTCATGCTCAGCATGATTTTTTTTTTTTTTTGAGTC [CTGAG]"
test_value = 0.359

[[record]]
sequence_input = "TTTTTTCATCATGCTGCTCATTTTTTTTTTTTTTTGGAAG [GAAGG]"
test_value = 0.445

[[record]]
sequence_input = "TTTTTTCATGATGATGCGCATTTTTTTTTTTTTTTGCCAT [TACCG]"
test_value = 0.404

[[record]]
sequence_input = "TTTTTGCATGCTCATCATCATTTTTTTTTTTTTTTTAGGG [GGGAT]"
test_value = 0.55

[[record]]
sequence_input = "TTTTTTGATCAGCATCAGCATTTTTTTTTTTTTTTCGTGT [TGTGC]"
test_value = 0.466

[[record]]
sequence_input = "TTTTTTGATGATGCTGCGCATTTTTTTTTTTTTTTCCAAT [TAACC]"
test_value = 0.394

[[record]]
sequence_input = "TTTTTGCATGATGATCATGATTTTTTTTTTTTTTTTCCGC [CGCCT]"
test_value = 0.412

[[record]]
sequence_input = "TTTTTGCATGCTGCGCATCATTTTTTTTTTTTTTTTAATG [GTAAT]"
test_value = 0.363

[[record]]
sequence_input = "TTTTTGCAGCATCATCAGCATTTTTTTTTTTTTTTTTGGT [TGGTT]"
test_value = 0.593

[[record]]
sequence_input = "TTTTTGCATGCTGCTCATGATTTTTTTTTTTTTTTTAAGC [CGAAT]"
test_value = 0.417

[[record]]
sequence_input = "TTTTTTGCGCATGCTGCGCATTTTTTTTTTTTTTTATAAT [TAATA]"
test_value = 0.418

[[record]]
sequence_input = "TTTTTTGATCATGATCAGCATTTTTTTTTTTTTTTCGCGT [TGCGC]"
test_value = 0.697

[[record]]
sequence_input = "TTTTTTGCTGCGCATGCTCATTTTTTTTTTTTTTTAATAG [GATAA]"
test_value = 0.408

[[record]]
sequence_input = "TTTTTTGCTCAGCATGCGCATTTTTTTTTTTTTTTAGTAT [TATGA]"
test_value = 0.417

[[record]]
sequence_input = "TTTTTTGATCATGCGCATGATTTTTTTTTTTTTTTCGATC [CTAGC]"
test_value = 0.354

[[record]]
sequence_input = "TTTTTGCATGCTGAGCATCATTTTTTTTTTTTTTTTACTG [GTCAT]"
test_value = 0.373

[[record]]
sequence_input = "TTTTTGCAGCATGAGCATGCTTTTTTTTTTTTTTTTTCTA [ATCTT]"
test_value = 0.404

[[record]]
sequence_input = "TTTTTTGCTGATCATCATGATTTTTTTTTTTTTTTACGGC [CGGCA]"
test_value = 0.433

[[record]]
sequence_input = "TTTTTTCATGAGCAGCATCATTTTTTTTTTTTTTTGCTTG [GTTCG]"
test_value = 0.343

[[record]]
sequence_input = "TTTTTTGATGCTGATCATCATTTTTTTTTTTTTTTCACGG [GGCAC]"
test_value = 0.525

[[record]]
sequence_input = "TTTTTGCATGATGCTGATGCTTTTTTTTTTTTTTTTCACA [ACACT]"
test_value = 0.379

